Molecular target: 5-hydroxytryptamine receptor 3A (Homo sapiens) (UniProt P46098)
Sequence (P46098 whole entry): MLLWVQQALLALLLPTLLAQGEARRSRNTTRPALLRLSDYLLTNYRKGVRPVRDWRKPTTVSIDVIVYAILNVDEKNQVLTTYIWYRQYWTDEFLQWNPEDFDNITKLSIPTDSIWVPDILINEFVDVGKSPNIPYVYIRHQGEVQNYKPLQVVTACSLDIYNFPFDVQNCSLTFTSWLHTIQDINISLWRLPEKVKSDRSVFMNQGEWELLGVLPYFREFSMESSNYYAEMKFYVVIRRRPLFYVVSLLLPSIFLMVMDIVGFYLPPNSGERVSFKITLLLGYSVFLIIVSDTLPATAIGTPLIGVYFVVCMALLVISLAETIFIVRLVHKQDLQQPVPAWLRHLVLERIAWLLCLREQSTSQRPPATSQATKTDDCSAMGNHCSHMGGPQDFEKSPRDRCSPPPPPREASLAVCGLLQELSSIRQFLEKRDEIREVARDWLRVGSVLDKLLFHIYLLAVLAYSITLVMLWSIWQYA
Assay: Displacement of [3H]BRL43694 from human recombinant 5HT3 receptor expressed in CHO cells at 10 uM after 60 mins by liquid scintillation counting
Type: cell-based
ATTRIBUTE MEASURED: inhibition (%)

Known inhibition results, listed for orientation:
In: Would you kindly share the measured inhibition for OC(CCN1CCC(O)(Cc2ccccc2)CC1)c1ccc(Cl)c(Cl)c1 (racemic) ?
Out: 14.1

In: Look up inhibition: OC(CCN1CC=C(Cc2ccccc2)CC1)c1csc2ccccc12 (racemic)
Out: 8.3

In: What does the data say about its inhibition? Entry: COc1ccc2cc(C(O)CCN3CC=C(Cc4ccccc4)CC3)ccc2c1Cl (racemic)
Out: 0.5

P = OC(CCN1CC=C(Cc2ccccc2)CC1)c1ccc(Cl)c(Cl)c1 (racemic)
Q = OC(CCN1CC=C(Cc2ccccc2)CC1)c1cc2ccccc2s1 (racemic)
In: # argmax over inhibition for candidates P and Q // output: label of the selected item
Out: P
(P: 25.1%, Q: 10.6%)

---

Target: Histamine H2 receptor (Homo sapiens) (UniProt P25021)
Sequence (P25021 whole entry): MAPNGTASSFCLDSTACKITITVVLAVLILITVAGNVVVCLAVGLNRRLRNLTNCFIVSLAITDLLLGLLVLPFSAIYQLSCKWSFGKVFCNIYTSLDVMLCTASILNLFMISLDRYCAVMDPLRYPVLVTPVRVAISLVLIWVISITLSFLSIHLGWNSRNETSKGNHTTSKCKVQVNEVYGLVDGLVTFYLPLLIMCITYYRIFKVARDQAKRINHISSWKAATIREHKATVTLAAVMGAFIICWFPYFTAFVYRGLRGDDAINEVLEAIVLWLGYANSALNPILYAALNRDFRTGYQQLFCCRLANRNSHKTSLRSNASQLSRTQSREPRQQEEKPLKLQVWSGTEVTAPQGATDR
Test: Displacement of [I125}APT from histamine H2 receptor at 10 uM
ATTRIBUTE MEASURED: inhibition (%)

In: I would be grateful if you could share the reported inhibition for COc1ccc2cc(C(O)CCN3CC=C(Cc4ccccc4)CC3)ccc2c1Cl (racemic) .
Out: 33.2

In: # query: inhibition of entry OC(CCN1CC=C(Cc2ccccc2)CC1)c1csc2ccccc12 (racemic)
Out: 14.9

I = OC(CCN1CCC(O)(Cc2ccccc2)CC1)c1ccc(Cl)c(Cl)c1 (racemic)
II = OC(CCN1CC=C(Cc2ccccc2)CC1)c1ccc(Cl)c(Cl)c1 (racemic)
In: Field: entry with larger inhibition (options I / II ). Your answer should be the label of the entry you select.
Out: II
(II: 15.6%, I: 6.7%)

---

Assay: Cmax in Sprague-Dawley rat at 10 mg/kg, po
Assay type: ADME, organism-based
Design: dose 10 mg/kg, route oral
Conditions: in vivo
ATTRIBUTE MEASURED: Cmax (ng/mL)

In: # get_value(readout='Cmax', item= OC(CCN1CCC(O)(Cc2ccccc2)CC1)c1ccc(Cl)c(Cl)c1 (racemic) )
Out: 897

In: Query: Cmax; subject: OC(CCN1CC=C(Cc2ccccc2)CC1)c1csc2ccccc12 (racemic)
Out: 923

---

Biological target: Beta-1 adrenergic receptor (Homo sapiens)
Test: Displacement of [3H](-)CGP12177 beta1 adrenergic receptor at 10 uM
ATTRIBUTE MEASURED: inhibition (%)

A = OC(CCN1CC=C(Cc2ccccc2)CC1)c1ccc(Cl)c(Cl)c1 (racemic)
B = OC(CCN1CC=C(Cc2ccccc2)CC1)c1csc2ccccc12 (racemic)
In: Recorded inhibition values differ for A and B ; which one is higher? Identify your selection by its label.
Out: A

I = COc1ccc2cc(C(O)CCN3CC=C(Cc4ccccc4)CC3)ccc2c1Cl (racemic)
II = OC(CCN1CCC(O)(Cc2ccccc2)CC1)c1ccc(Cl)c(Cl)c1 (racemic)
In: Looking only at measured inhibition, which entry is lower, I or II ? Which one? Tell me its label.
Out: II
(II: 15.3%, I: 46.7%)

---

Biological target: D(3) dopamine receptor (Homo sapiens) (UniProt P35462)
Sequence (P35462 whole entry): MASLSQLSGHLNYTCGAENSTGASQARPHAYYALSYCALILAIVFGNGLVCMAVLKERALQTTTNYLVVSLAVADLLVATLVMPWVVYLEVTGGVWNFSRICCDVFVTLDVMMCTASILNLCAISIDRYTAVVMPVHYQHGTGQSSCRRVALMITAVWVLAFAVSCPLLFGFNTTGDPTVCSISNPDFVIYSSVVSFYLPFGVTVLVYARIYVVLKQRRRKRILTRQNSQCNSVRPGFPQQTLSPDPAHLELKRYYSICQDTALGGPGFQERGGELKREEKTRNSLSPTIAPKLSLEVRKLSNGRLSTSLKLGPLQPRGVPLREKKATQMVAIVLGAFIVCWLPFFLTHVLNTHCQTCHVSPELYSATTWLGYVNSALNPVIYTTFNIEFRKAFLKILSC
Assay: Displacement of [3H]Methylspiperone from human recombinant dopamine D3 receptor expressed in CHO cells at 10 uM after 60 mins by liquid scintillation counting
Assay type: cell-based
ATTRIBUTE MEASURED: inhibition (%)

In: Request - read-out inhibition | tested on D(3) dopamine receptor (Homo sapiens) (UniProt P35462) | compound COc1ccc2cc(C(O)CCN3CC=C(Cc4ccccc4)CC3)ccc2c1Cl (racemic)
Out: 11.3

In: Provide value of inhibition for this record tested with D(3) dopamine receptor (Homo sapiens) (UniProt P35462): OC(CCN1CC=C(Cc2ccccc2)CC1)c1csc2ccccc12 (racemic)
Out: 3.5

In: Which measured inhibition belongs to OC(CCN1CC=C(Cc2ccccc2)CC1)c1cc2ccccc2s1 (racemic) , tested on D(3) dopamine receptor (Homo sapiens) (UniProt P35462)?
Out: 1.2

I = OC(CCN1CCC(O)(Cc2ccccc2)CC1)c1ccc(Cl)c(Cl)c1 (racemic)
II = OC(CCN1CC=C(Cc2ccccc2)CC1)c1ccc(Cl)c(Cl)c1 (racemic)
In: Between I and II , whose measured inhibition reads higher? Field: selected label. Fill in the label of the entry you choose.
Out: II

---

Molecular target: Muscarinic acetylcholine receptor M1 (Homo sapiens)
Test: Displacement of [3H]pirenzepine from human recombinant M1 receptor expressed in CHO cells at 10 uM after 60 mins by liquid scintillation counting
Assay type: cell-based
ATTRIBUTE MEASURED: inhibition (%)

In: inhibition of OC(CCN1CCC(O)(Cc2ccccc2)CC1)c1ccc(Cl)c(Cl)c1 (racemic) on Muscarinic acetylcholine receptor M1 (Homo sapiens)?
Out: 34.2

P = COc1ccc2cc(C(O)CCN3CC=C(Cc4ccccc4)CC3)ccc2c1Cl (racemic)
Q = OC(CCN1CC=C(Cc2ccccc2)CC1)c1csc2ccccc12 (racemic)
R = OC(CCN1CC=C(Cc2ccccc2)CC1)c1cc2ccccc2s1 (racemic)
S = OC(CCN1CC=C(Cc2ccccc2)CC1)c1ccc(Cl)c(Cl)c1 (racemic)
In: Please list these compounds in decreasing order of inhibition. Kindly provide the labels arranged according to the requested ordering.
Out: P, R, S, Q

---

Assay: AUC (0 to infinity) in Sprague-Dawley rat at 10 mg/kg, po
Assay type: ADME, organism-based
Parameters: time infinity, dose 10 mg/kg, route oral
Conditions: plasma
ATTRIBUTE MEASURED: AUC(0-inf) (ng·h/mL)

In: # AUC(0-inf) lookup, item OC(CCN1CC=C(Cc2ccccc2)CC1)c1csc2ccccc12 (racemic)
Out: 5720

In: Consider the molecule OC(CCN1CCC(O)(Cc2ccccc2)CC1)c1ccc(Cl)c(Cl)c1 (racemic) and give its measured AUC(0-inf).
Out: 5440

---

Target: Histamine H1 receptor (Cavia porcellus) (UniProt P31389)
Sequence (P31389 whole entry): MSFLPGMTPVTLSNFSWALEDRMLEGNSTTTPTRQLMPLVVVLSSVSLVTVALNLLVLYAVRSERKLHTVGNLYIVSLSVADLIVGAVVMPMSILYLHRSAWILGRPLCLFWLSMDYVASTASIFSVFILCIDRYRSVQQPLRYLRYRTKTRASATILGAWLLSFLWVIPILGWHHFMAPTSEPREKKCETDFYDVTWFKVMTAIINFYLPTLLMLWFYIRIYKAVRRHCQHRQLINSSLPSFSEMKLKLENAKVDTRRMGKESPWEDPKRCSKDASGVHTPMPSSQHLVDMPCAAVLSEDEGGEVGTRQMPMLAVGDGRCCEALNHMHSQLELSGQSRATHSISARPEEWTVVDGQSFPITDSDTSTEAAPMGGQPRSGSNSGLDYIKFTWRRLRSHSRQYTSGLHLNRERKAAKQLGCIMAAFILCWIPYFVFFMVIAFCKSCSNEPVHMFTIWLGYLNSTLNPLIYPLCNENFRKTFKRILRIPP
Experiment: Displacement of [3H]Pyrilamin from guinea pig histamine H1 receptor at 10 uM after 10 mins by liquid scintillation counting
ATTRIBUTE MEASURED: inhibition (%)

In: Can you share its inhibition? I mean this compound: COc1ccc2cc(C(O)CCN3CC=C(Cc4ccccc4)CC3)ccc2c1Cl (racemic)
Out: 10.6

In: Field request: inhibition | item: OC(CCN1CC=C(Cc2ccccc2)CC1)c1cc2ccccc2s1 (racemic)
Out: 0.1

a = OC(CCN1CC=C(Cc2ccccc2)CC1)c1ccc(Cl)c(Cl)c1 (racemic)
b = OC(CCN1CC=C(Cc2ccccc2)CC1)c1csc2ccccc12 (racemic)
In: I'm curious whether a or b has the smaller inhibition number. Which is it? Returns: label corresponding to the selected item.
Out: a

---

Target: Adrenergic receptor alpha-2 (Rattus norvegicus) (UniProt P22086+P19328+P22909)
Test: Displacement of [3H]RX821002 from rat alpha2 adrenergic receptor at 10 uM after 30 mins by liquid scintillation counting
ATTRIBUTE MEASURED: inhibition (%)

In: Data request, read-out inhibition, for OC(CCN1CC=C(Cc2ccccc2)CC1)c1cc2ccccc2s1 (racemic)
Out: 32.5

A = OC(CCN1CC=C(Cc2ccccc2)CC1)c1csc2ccccc12 (racemic)
B = OC(CCN1CC=C(Cc2ccccc2)CC1)c1ccc(Cl)c(Cl)c1 (racemic)
C = OC(CCN1CCC(O)(Cc2ccccc2)CC1)c1ccc(Cl)c(Cl)c1 (racemic)
In: Order the records, beginning with the lowest inhibition and ending with the highest. I'd appreciate it if you listed the labels in the requested order.
Out: B, A, C
(B: 16.2%, A: 27.3%, C: 43.5%)

---

Biological target: 5-hydroxytryptamine receptor 6 (Homo sapiens) (UniProt P50406)
Sequence (P50406 whole entry): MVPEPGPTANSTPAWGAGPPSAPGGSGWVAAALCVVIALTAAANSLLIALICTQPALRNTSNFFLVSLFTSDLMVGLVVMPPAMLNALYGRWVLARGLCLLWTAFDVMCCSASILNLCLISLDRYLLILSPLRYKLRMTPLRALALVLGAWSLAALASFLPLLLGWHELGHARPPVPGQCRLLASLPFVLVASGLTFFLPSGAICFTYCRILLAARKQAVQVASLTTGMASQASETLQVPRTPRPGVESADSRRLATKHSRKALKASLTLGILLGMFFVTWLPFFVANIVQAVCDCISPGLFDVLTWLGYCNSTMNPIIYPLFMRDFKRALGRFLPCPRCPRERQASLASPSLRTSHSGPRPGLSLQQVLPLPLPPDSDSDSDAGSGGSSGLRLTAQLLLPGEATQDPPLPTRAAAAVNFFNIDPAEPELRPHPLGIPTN
Assay: Displacement of [3H]LSD from human recombinant 5HT6 receptor expressed in HEK293 cells at 10 uM after 60 mins by liquid scintillation counting
Format: cell-based
ATTRIBUTE MEASURED: inhibition (%)

In: Which inhibition value belongs to OC(CCN1CC=C(Cc2ccccc2)CC1)c1csc2ccccc12 (racemic) ?
Out: 16.8

1 = COc1ccc2cc(C(O)CCN3CC=C(Cc4ccccc4)CC3)ccc2c1Cl (racemic)
2 = OC(CCN1CC=C(Cc2ccccc2)CC1)c1cc2ccccc2s1 (racemic)
3 = OC(CCN1CCC(O)(Cc2ccccc2)CC1)c1ccc(Cl)c(Cl)c1 (racemic)
4 = OC(CCN1CC=C(Cc2ccccc2)CC1)c1ccc(Cl)c(Cl)c1 (racemic)
In: Could you please order the items by inhibition, going from the lowest number to the highest? Lab note: final answer is the ordered label list.
Out: 1, 4, 3, 2
(1: -0.9%, 4: 1.9%, 3: 14.8%, 2: 53.7%)

---

Molecular target: Sodium-dependent dopamine transporter (Homo sapiens)
Sequence (Q01959 whole entry): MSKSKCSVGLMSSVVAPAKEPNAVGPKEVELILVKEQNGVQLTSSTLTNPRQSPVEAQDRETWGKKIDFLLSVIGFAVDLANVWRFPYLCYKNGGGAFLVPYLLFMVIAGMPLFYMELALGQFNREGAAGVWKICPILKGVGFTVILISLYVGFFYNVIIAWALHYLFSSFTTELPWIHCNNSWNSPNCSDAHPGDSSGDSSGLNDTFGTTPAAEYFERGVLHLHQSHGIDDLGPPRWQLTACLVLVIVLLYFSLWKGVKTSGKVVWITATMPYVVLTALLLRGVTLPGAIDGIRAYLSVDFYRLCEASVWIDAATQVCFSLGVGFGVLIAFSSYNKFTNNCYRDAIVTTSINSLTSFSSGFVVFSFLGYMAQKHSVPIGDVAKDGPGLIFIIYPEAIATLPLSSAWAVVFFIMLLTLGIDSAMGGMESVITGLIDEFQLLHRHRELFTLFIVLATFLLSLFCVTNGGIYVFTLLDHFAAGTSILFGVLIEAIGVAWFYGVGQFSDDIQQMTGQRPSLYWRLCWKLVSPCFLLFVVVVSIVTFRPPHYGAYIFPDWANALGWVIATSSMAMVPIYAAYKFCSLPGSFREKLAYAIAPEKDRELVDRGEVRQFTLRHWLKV
Assay: Inhibition of [3H]dopamine uptake at human DAT expressed in HEK293 cells at 10 uM after 10 mins by scintillation counting
ATTRIBUTE MEASURED: inhibition (%)

In: Suppose we examine the compound C[C@@H]([C@@H](O)c1ccc(Cl)c(Cl)c1)N1CC=C(Cc2ccccc2)CC1 (racemic) ; what inhibition value has been reported?
Out: 64

In: # query: inhibition of entry COc1ccc(C(O)CCN2CC=C(Cc3ccccc3)CC2)cc1 (racemic)
Out: 57

In: Give its inhibition value. Item: COc1ccc(C(O)CCN2CC=C(Cc3ccccc3)CC2)cc1OC (racemic)
Out: 61

In: Quick check: inhibition of COc1ccc2cc([C@H](O)[C@@H](C)N3CCC(O)(Cc4ccccc4)CC3)ccc2c1Cl (racemic) ?
Out: 51

In: Suppose we examine the compound OC(CCN1CC=C(Cc2ccccc2)CC1)c1ccc(F)cc1F (racemic) ; what inhibition value has been reported?
Out: 66

In: Find the recorded inhibition belonging to OC(CCN1CC=C(Cc2ccccc2)CC1)c1ccc(Cl)cc1 (racemic) and report it.
Out: 61
